Parameter z-score: see the listing below.
# assay text: JC-1 mitochondrial signal, unstimulated adipocytes – cell-based, JC-1 fluorescence, 3T3-L1 adipocytes, 24 h, 100 nL compound, profiling panel (AID 1168); also: test concentration not given here
# test context: JC-1 mitochondrial fluorescence, higher = more signal, called active from +8 up or from −8 down
The source made the active and inactive calls.

| compound | value kind | reported |
| --- | --- | --- |
| CC(C)c1ccc(NN2C(C(O)c3ccc(F)cc3)C=CC3C(=O)N(c4ccccc4)C(=O)C32)cc1 (stereo not drawn) | z-score | -0.382 (inactive) |
| COc1cc2c(cc1O)C(c1ccc(CN3CCCC3)cc1)N(Cc1cc3c(cc1Br)OCO3)CC2 (stereo not drawn) | z-score | 0.144 (inactive) |

Please turn your attention to the following entry.
Asked: So what's the measured z-score for this one? CCOC(=O)C[C@H]1[C@H](OC(=O)Cc2ccc3c(c2)OCO3)[C@@H](NC(=O)c2ccc3ccccc3n2)c2cc(OCCCO)ccc2N1C(=O)c1ccccc1
Given back: 0.0925 (inactive)

---

# measurement target: Dickkopf-related protein 1 (Homo sapiens)
# assay text: small molecules binding DKK1 protein – biochemical, small-molecule microarray, 635 nm fluorescence scan, primary screen (AID 1106);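 also: score merges emission near 667 nm with signal to noise over three replicate slides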
# test context: higher = more signal
value kind: composite z-score
Please reply with the number alone, leaving off any unit.

| compound | composite z-score |
| --- | --- |
| O=C(O)[C@@H]1[C@@H]2C(=O)N(c3ccccc3)C(=O)[C@@H]2C[C@@H]1Sc1ccccc1 | -1.19 |

Asked: # returns recorded composite z-score (system: Dickkopf-related protein 1 (Homo sapiens)) for CCOC(=O)C[C@H]1[C@H](OC(=O)c2cc3ccccc3oc2=O)[C@@H](NC(=O)c2ccc3ccccc3n2)c2cc(OCCCO)ccc2N1C(=O)Cc1ccc(OC)cc1
Given back: 0.707

Asked: # returns recorded composite z-score (system: Dickkopf-related protein 1 (Homo sapiens)) for CN1C(=O)C2C=CC(C(O)c3cccn3C)N(Nc3ccc([N+](=O)[O-])cc3[N+](=O)[O-])C2C1=O (centres undefined)
Given back: -0.31

Asked: # returns recorded composite z-score (system: Dickkopf-related protein 1 (Homo sapiens)) for C=C[C@@H](CO)N(Cc1ccc(OC)cc1)S(=O)(=O)c1ccc(Br)cc1
Given back: -0.0478

---

Parameter composite z-score: see the listing below.
# measurement target: E3 ubiquitin-protein ligase XIAP (Homo sapiens)
# assay text: small molecules binding XIAP protein – biophysical, small-molecule microarray, fluorescence 635 nm, primary screen (AID 1181);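 also: score merges 667 nm emission and signal to noise over triplicate slides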
# test context: higher = more signal
Please reply with the number alone, leaving off any unit.

Known composite z-score results, listed for orientation:
| compound | composite z-score |
| --- | --- |
| Cc1ccc(S[C@]2(C(=O)NCCN3CCOCC3)CC(=O)N(Cc3ccccc3Cl)[C@@H]2c2ccc(CO)cc2I)cc1 | -0.259 |
| COC(=O)[C@@]1(Cc2ccc(OC)cc2)[C@H]2c3cc(C(=O)N(C)C)n(Cc4ccc(OC(F)(F)F)cc4)c3C[C@H]2CN1C(=O)c1ccccc1 | 0.422 |
| CN(C)C(=O)[C@@]1(Cc2ccccc2CN=[N+]=[N-])N=C(c2ccc(OCCCO)cc2)O[C@H]1c1ccccc1N=[N+]=[N-] | 0.202 |

Please turn your attention to the following entry.
Asked: # returns recorded composite z-score (system: E3 ubiquitin-protein ligase XIAP (Homo sapiens)) for COc1cccc(C)c1NC(=O)O[C@H]1[C@H](OC(=O)Nc2ccccc2-c2ccccc2)[C@H](OC(=O)Nc2ccccc2-c2ccccc2)[C@@H](OC)O[C@@H]1CO
Given back: 0.248

---

# measurement target: Torsin-1A (Homo sapiens)
# assay text: TOR1A wild-type binding on microarray – cell lysate, small-molecule microarray, lysate, 635/667 nm, primary screen (AID 1149)
# test context: COS7 hTOR1A-WT lysate, 635 nm fluorescence, higher = more signal
value kind: composite z-score
Please reply with the number alone, leaving off any unit.

Known composite z-score results, listed for orientation:
| compound | composite z-score |
| --- | --- |
| O=C(NCCN1CCOCC1)[C@@H]1c2ccccc2C(=O)N(C2Cc3ccccc3C2)[C@H]1c1ccc(CO)cc1 | 1.3 |
| COc1cc(NN2C(C(O)c3ccco3)C=CC3C(=O)N(C)C(=O)C32)cc(OC)c1OC (stereo not given) | 1.27 |
| CCCCC(CC)C(O)C1C=CC2C(=O)N(c3ccccc3)C(=O)C2N1Nc1ccc(C#N)cc1 (stereo not given) | -0.064 |
| CCCC=C(CCC)[C@@H](NS(=O)(=O)c1ccc(C(F)(F)F)cc1)c1ccccc1 | -0.0214 |
| COc1ccc(CCNC(=O)[C@@]2(Cc3ccccc3I)c3ccccc3C(=O)N(C3CCCCC3)[C@H]2c2ccc(CO)cc2)cc1 | -0.57 |

Asked: # returns recorded composite z-score (system: Torsin-1A (Homo sapiens)) for CC(CO)N1C(=O)[C@@H]2[C@H]3C(=O)OCC=C[C@H]3OC23C=CCN(Cn2nnc4ccccc42)C(=O)[C@@H]13 (stereo not given in full)
Given back: -0.49

Asked: # returns recorded composite z-score (system: Torsin-1A (Homo sapiens)) for COC(=O)C(CC#Cc1ccc2c(c1)[C@]1(C(=O)N2)[C@H](c2ccc(O)cc2)N2[C@H](c3ccccc3)[C@H](c3ccccc3)OC(=O)[C@H]2[C@@H]1C(=O)NC[C@H](O)c1ccccc1)C(=O)OC
Given back: -0.207

Asked: # returns recorded composite z-score (system: Torsin-1A (Homo sapiens)) for CCCCN1CC=CC23O[C@@H]4/C=C\CCC(C)OC(=O)C4[C@H]2C(=O)N(CCCO)[C@@H]3C1=O (stereo not given in full)
Given back: -1.54

Asked: # returns recorded composite z-score (system: Torsin-1A (Homo sapiens)) for Cc1ccc(F)cc1S(=O)(=O)N[C@@H]1CCN(Cc2ccc(Br)cc2)C1
Given back: 0.476

Asked: # returns recorded composite z-score (system: Torsin-1A (Homo sapiens)) for C=CCOC(=O)[C@@H]1[C@H]2C(=O)O[C@H](c3ccccc3)[C@H](c3ccccc3)N2[C@H](c2ccc(OCCOC(=O)[C@@H]3C[C@@H]4C(=O)N[C@@H](CCCC[N+](C)(C)C)C(=O)N4[C@@H]3c3ccc(O)cc3)cc2)[C@@]12C(=O)Nc1ccc(I)cc12
Given back: 1.22

---

# measurement target: Fibroblast growth factor 2 (Homo sapiens)
# assay text: basic fibroblast growth factor binding to printed compounds – biochemical, small-molecule microarray, 635/667 nm fluorescence, primary screen (AID 1133)
# test context: FGF2, fluorescence 635/667, higher = more signal
Classification field: True = composite z-score at or over 0.5; False = composite z-score under 0.5.

For orientation, consider the following solved cases.
| compound | measurement target | label class |
| --- | --- | --- |
| CCCC1(C(=O)OC)C=C2C(=C(C)C(=O)C2C)CN1 (stereo unspecified) | Fibroblast growth factor 2 (Homo sapiens) | False |
| C=CCN1C(=O)[C@]2(CCS(=O)(=O)c3ccccc3)N=C(c3ccc(OCCCO)cc3)O[C@@H]2c2ccccc21 | Fibroblast growth factor 2 (Homo sapiens) | True |
| C=CCN1Cc2ccccc2[C@@H]2OC(c3ccc(OCCCO)cc3)=N[C@]2(CC=C)C1=O | Fibroblast growth factor 2 (Homo sapiens) | True |
| CCOC(=O)C[C@H]1[C@H](OC(=O)c2cc3ccccc3oc2=O)[C@@H](NC(=O)c2ccccc2)c2cc(OCCCO)ccc2N1C(=O)c1ccccc1 | Fibroblast growth factor 2 (Homo sapiens) | True |
| C=CCC(OC(C)=O)[C@@H]1[C@@H](N(Cc2cccc3ccccc23)C(=O)Cc2ccc(OC)cc2)c2cc(OCCCO)ccc2N1C(=O)c1ccc(-c2ccccc2)cc1 (stereo partly specified) | Fibroblast growth factor 2 (Homo sapiens) | False |

Asked: Say whether Cc1ccc(S[C@]2(C(=O)NCC(F)(F)F)CC(=O)N(Cc3cc(C(F)(F)F)cc(C(F)(F)F)c3)[C@@H]2c2ccc(CO)cc2)cc1 shows composite z-score of 0.5 or more.
Given back: False

Asked: Say whether [N-]=[N+]=Nc1ccccc1C[C@]1(C(=O)N2CCOCC2)COC(c2ccc(OCCCO)cc2)=N1 shows composite z-score of 0.5 or more.
Given back: False

Asked: Say whether O=C(C1N=C(c2ccc(OCCCO)cc2)N(c2ccccc2)O1)N1CCCCC1 (stereo unspecified) shows composite z-score of 0.5 or more.
Given back: False

Asked: Say whether N[C@@H](Cc1ccccc1)C(=O)NCc1cn(Cc2ccccc2)nn1 shows composite z-score of 0.5 or more.
Given back: False

Asked: Say whether CS(=O)(=O)CCOC(=O)C1=CC(CCCO)=CC(c2ccc(CN3CCCC3)cc2)N(Cc2sc3ccccc3c2Cl)C=C1C(=O)OCCS(C)(=O)=O (stereo unspecified) shows composite z-score of 0.5 or more.
Given back: True

---

# assay text: binders from COS7 lysate, DM2A8 probe, primary screen, torsin A project, cell lysate, small-molecule microarray, fluorescence 635/667 (AID 1065)
# test context: higher = more signal, COS7 lysate expressing mutant human TOR1A
Parameter composite z-score: see the listing below.
Please reply with the number alone, leaving off any unit.

Known composite z-score results, listed for orientation:
| molecule | composite z-score |
| --- | --- |
| [N-]=[N+]=Nc1ccccc1C[C@@]1(C(N)=O)N=C(c2ccc(OCCCO)cc2)O[C@@H]1c1ccccc1N=[N+]=[N-] | 0.338 |
| CCOC(=O)C[C@H]1[C@H](OC(=O)c2cc3ccccc3oc2=O)[C@@H](NC(=O)c2ccccc2)c2cc(OCCCO)ccc2N1C(=O)c1ccccc1 | 0.524 |
| Cc1ccc(F)cc1S(=O)(=O)N[C@@H]1CCN(Cc2ccc(Br)cc2)C1 | 0.673 |
| COCCOC(=O)N1C(=O)[C@@]2(c3cc(C#CCCO)ccc31)[C@H](c1ccc(OCCO)cc1)N1[C@H](c3ccccc3)[C@H](c3ccccc3)OC(=O)[C@H]1[C@@H]2C(=O)Nc1nc2ccccc2s1 | 0.68 |
| CC[C@@H]1C=C(C(=O)O)[C@H](c2ccccc2)N1S(=O)(=O)c1ccc(C)cc1 | 0.577 |
| CC1CC/C=C\[C@H]2OC34C=CCN(Cc5ccccc5)C(=O)[C@H]3N(C(CO)C(C)C)C(=O)[C@@H]4C2C(=O)O1 (some centres undefined) | -0.153 |
| C=C(/C(=C/C[C@H](OC(C)=O)c1ccc(CO)o1)c1cnc2ccccc2c1)C(C)C | 1.01 |
| CN(C)CCCCCCNC(=O)[C@@H]1C[C@@H]2C(=O)N3CCC[C@H]3C(=O)N2[C@@H]1c1cccc(OCCO)c1 | 2.09 |
| C=CCC(OC(C)=O)[C@@H]1[C@@H](N(Cc2ccc(-c3cccc(C(F)(F)F)c3)o2)C(=O)Cc2ccc(OC)cc2)c2cc(OCCCO)ccc2N1C(=O)c1ccc(-c2ccccc2)cc1 (some centres undefined) | 0.004 |
| CCOC(=O)C[C@H]1[C@H](OC(=O)c2cc3ccccc3oc2=O)[C@@H](NC(=O)c2ccc3ccccc3n2)c2cc(OCCCO)ccc2N1C(=O)Cc1ccc(OC)cc1 | 0.522 |

Please turn your attention to the following entry.
Asked: So what's the measured composite z-score for this one? COc1cc2c(cc1O)C(C1CC1)N(Cc1cccc(OC(F)(F)F)c1)CC2 (centres undefined)
Given back: 0.257
